B1: FLOT1 (parent)
chain: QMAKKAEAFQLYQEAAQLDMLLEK

# Variants of: B1
# test: protein stability index of a GFP-peptide fusion (GPS, HEK-293T) (PSI 1-6); higher = more stable;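 also: lentivirally expressed fusions sorted by FACS into six bins by GFP to DsRed ratio, PSI derived from sequencing read proportions per bin multiplied by bin number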
# conditionInfo: c terminus: a fixed tail appended
The variants listed here are annotated with their protein stability index.
Please give only the number in your answer, with no unit.

[[record]]
mutationlist = "M20E"
quantitativereadout = 3.76

[[record]]
mutationlist = "L22E"
quantitativereadout = 1.61

[[record]]
mutationlist = "M20N"
quantitativereadout = 2.47

[[record]]
mutationlist = "Q17A"
quantitativereadout = 1.47

[[record]]
mutationlist = "Q10T"
quantitativereadout = 2.79


**Q:** Form field: reported protein stability index of L11S
**A:** 2.23

**Q:** Form field: reported protein stability index of K24W
**A:** 2.57

**Q:** Form field: reported protein stability index of M2F
**A:** 1.78
